Recorded pIC50, one value per entry.
- Experimental Target: human MetAP2 enzyme (Homo sapiens, UniProt P50579)
- Sequence (P50579 whole entry): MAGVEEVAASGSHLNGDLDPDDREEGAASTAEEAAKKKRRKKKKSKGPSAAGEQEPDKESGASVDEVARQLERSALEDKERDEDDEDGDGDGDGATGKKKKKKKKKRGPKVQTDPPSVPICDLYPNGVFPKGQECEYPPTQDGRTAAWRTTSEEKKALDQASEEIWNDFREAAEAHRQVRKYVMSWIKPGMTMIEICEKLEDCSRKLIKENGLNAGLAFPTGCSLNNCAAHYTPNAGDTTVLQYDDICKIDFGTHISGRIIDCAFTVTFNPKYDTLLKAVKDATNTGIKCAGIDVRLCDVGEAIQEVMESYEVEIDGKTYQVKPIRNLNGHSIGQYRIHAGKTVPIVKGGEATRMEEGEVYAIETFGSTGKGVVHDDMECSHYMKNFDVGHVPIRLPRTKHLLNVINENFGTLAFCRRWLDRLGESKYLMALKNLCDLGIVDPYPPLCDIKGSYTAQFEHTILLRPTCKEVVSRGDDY
- Method Description: MetAP2 enzyme assay, enzyme complexed with cobalt ions
- Experimental Conditions: MetAP2 Co pIC50, MetAP2 enzyme complexed with cobalt ions; Met-AMC substrate at Km
The value called pIC50 is obtained by taking minus log10 of the concentration in mol/L.

Example entries and their recorded answers appear below.
* NC(=O)Cc1cccc(-c2cc(C(F)(F)F)cc3[nH]ncc23)c1 | 7.30
* Cc1onc(N)c1-c1cc(C(F)(F)F)cc2[nH]ncc12 | 6.10
* CN1CCN(C(=O)c2cncc(-c3cc(C(F)(F)F)cc4[nH]ncc34)c2)CC1 | 7.20
* FC(F)(F)c1cc(-c2cccnc2)c2cn[nH]c2c1 | 7.20
* Cc1nc2ccccn2c1-c1cc(C(F)(F)F)cc2[nH]ncc12 | 6.10

### Prompt Can you look up the measured pIC50 of Cc1ccc(-c2cc(C(F)(F)F)cc3[nH]ncc23)c(C)n1 for me?
### Response 7.30

### Prompt So what's the measured pIC50 for this one? NC(=O)c1cc(-c2cc(C(F)(F)F)cc3[nH]ncc23)ccn1
### Response 7.20

### Prompt Looking for the measured pIC50 of CCOCn1ccnc1-c1cc(C(F)(F)F)cc2[nH]ncc12 , can you help?
### Response 5.40

* * *

- Experimental Target: human MetAP2 enzyme (Homo sapiens, UniProt P50579)
- Method Description: MetAP2 enzyme assay, enzyme complexed with manganese ions
- Experimental Conditions: MetAP2 Mn pIC50, MetAP2 enzyme complexed with manganese ions; Met-AMC substrate at Km
Measure Name: pIC50
Reminder that pIC50 means the negative base-10 logarithm of the concentration expressed in mol/L.

Use the examples below as a reference point.
* CNC(=O)Cn1c(=O)c(-c2cc(C(F)(F)F)cc3[nH]ncc23)cn(C)c1=O | 7.80
* Cc1ccc(-c2cc(C(F)(F)F)cc3[nH]ncc23)c(N)n1 | 8.20
* NS(=O)(=O)c1cc(F)c(-c2cc(C(F)(F)F)cc3[nH]ncc23)cc1F | 8.30
* COc1cc(C)c(-c2cc(C(F)(F)F)cc3[nH]ncc23)cn1 | 8.00
* Cc1nn(C(F)F)c(C)c1-c1cc(C(F)(F)F)cc2[nH]ncc12 | 7.90

Please turn your attention to the following entry.
### Prompt Would you kindly share the measured pIC50 for CNC(=O)c1ccc(F)c(-c2cc(C(F)(F)F)cc3[nH]ncc23)c1 ?
### Response 8.20

* * *

- Experimental Target: human MetAP2 enzyme (Homo sapiens)
- Method Description: MetAP2 enzyme assay, enzyme complexed with manganese ions
- Experimental Conditions: MetAP2 Mn pIC50, MetAP2 enzyme complexed with manganese ions; Met-AMC substrate at Km
Measure Name: pIC50
The meaning of pIC50 here: minus log10 of the concentration in molar units.

- FC(F)(F)c1cc(-c2cnc3ncccn23)c2cn[nH]c2c1 [Example 151]: 8.20
- Cc1cn(C)c(-c2cc(C(F)(F)F)cc3[nH]ncc23)n1 [Example 163]: 7.90
- FC(F)(F)c1cc(-c2cn[nH]c2)c2cn[nH]c2c1 [Example 23]: 8.20
- CN1CCN(C(=O)c2cc(-c3cc(C(F)(F)F)cc4[nH]ncc34)ccn2)CC1 [Example 284]: 8.10
- C[C@@H](O)CNC(=O)c1c[nH]c(=O)c(-c2cc(C(F)(F)F)cc3[nH]ncc23)c1 [Example 336]: 8.00

Field: next molecule
### Prompt For human MetAP2 enzyme (Homo sapiens), provide pIC50 of COc1ncc(-c2cc(C(F)(F)F)cc3[nH]ncc23)cn1 [Example 246] please.
### Response 8.50

* * *

- Experimental Target: human MetAP2 enzyme (Homo sapiens)
- Method Description: MetAP2 enzyme assay, enzyme complexed with manganese ions
- Experimental Conditions: MetAP2 Mn pIC50, MetAP2 enzyme complexed with manganese ions; Met-AMC substrate at Km
Measure Name: pIC50
Recall that pIC50 is obtained by taking minus log10 of the concentration measured in molar.

The examples below pair each entry with its known result.
- COc1nc(Cl)ccc1-c1cc(C(F)(F)F)cc2[nH]ncc12 [Example 392]: 7.90
- C[C@H](O)CNC(=O)c1cc(-c2cc(C(F)(F)F)cc3[nH]ncc23)c(=O)n(C)c1 [Example 359]: 8.00

// moving on: another record for pIC50
### Prompt Given COc1ccc(C(=O)NCCO)cc1-c1cc(C(F)(F)F)cc2[nH]ncc12 [Example 268] , state its recorded pIC50.
### Response 7.80

* * *

- Experimental Target: human MetAP2 enzyme (Homo sapiens, UniProt P50579)
- Method Description: MetAP2 enzyme assay, enzyme complexed with manganese ions
- Experimental Conditions: MetAP2 Mn pIC50, MetAP2 enzyme complexed with manganese ions; Met-AMC substrate at Km
In this section we review reported IC50 values for a set of molecules.

### Prompt Lab note: need IC50 with human MetAP2 enzyme (Homo sapiens, UniProt P50579) for entry N#Cc1cccc(-c2cc(C(F)(F)F)cc3[nH]ncc23)c1 [Example 33] , please look it up.
### Response 10 nM

### Prompt Enter reported IC50 observed with human MetAP2 enzyme (Homo sapiens, UniProt P50579) for CN(C)S(=O)(=O)c1ccccc1-c1cc(C(F)(F)F)cc2[nH]ncc12 [Example 183]
### Response 39.8 nM

### Prompt Look up IC50 with human MetAP2 enzyme (Homo sapiens, UniProt P50579) for this molecule: N#CCc1cccc(-c2cc(C(F)(F)F)cc3[nH]ncc23)c1 [Example 90]
### Response 3.16 nM

### Prompt Find the measured IC50: item Cc1nc2[nH]c(O)nc2cc1-c1cc(C(F)(F)F)cc2[nH]ncc12 [Example 382] , target or system human MetAP2 enzyme (Homo sapiens, UniProt P50579).
### Response 6.31 nM

### Prompt Form entry - test system: human MetAP2 enzyme (Homo sapiens, UniProt P50579); read-out: IC50; molecule: NS(=O)(=O)c1ccc(-c2cc(C(F)(F)F)cc3[nH]ncc23)cn1 [Example 345]
### Response 5.01 nM

### Prompt Please state recorded IC50 (tested on human MetAP2 enzyme (Homo sapiens, UniProt P50579)) of Cc1ccc(C(=O)N2CCC(O)CC2)cc1-c1cc(C(F)(F)F)cc2[nH]ncc12 [Example 372]
### Response 31.6 nM

### Prompt Form: Entry = Cc1nc2[nH]cnc2cc1-c1cc(C(F)(F)F)cc2[nH]ncc12 [Example 195] | System = human MetAP2 enzyme (Homo sapiens, UniProt P50579) | IC50 = ____
### Response 6.31 nM

### Prompt Please state recorded IC50 (tested on human MetAP2 enzyme (Homo sapiens, UniProt P50579)) of O=S(=O)(c1ccc(-c2cc(C(F)(F)F)cc3[nH]ncc23)cc1)N1CCOCC1 [Example 225]
### Response 7.94 nM

### Prompt Form field - read-out: IC50; system: human MetAP2 enzyme (Homo sapiens, UniProt P50579); submitted item: Nc1ncc(Cl)cc1-c1cc(C(F)(F)F)cc2[nH]ncc12 [Example 137]
### Response 10 nM

### Prompt Give human MetAP2 enzyme (Homo sapiens, UniProt P50579) IC50 for Nc1ncc(F)cc1-c1cc(C(F)(F)F)cc2[nH]ncc12 [Example 194]
### Response 10 nM

### Prompt Give human MetAP2 enzyme (Homo sapiens, UniProt P50579) IC50 for CN(C)CCn1c(=O)c(-c2cc(C(F)(F)F)cc3[nH]ncc23)cn(C)c1=O [Example 319]
### Response 39.8 nM

### Prompt What IC50 appears in the records for this molecule with human MetAP2 enzyme (Homo sapiens, UniProt P50579)? COCc1ccc(-c2cc(C(F)(F)F)cc3[nH]ncc23)cc1 [Example 48]
### Response 5.01 nM

### Prompt Item: NC(=O)c1ccc(-c2cc(C(F)(F)F)cc3[nH]ncc23)c(F)c1 [Example 321] Test system: human MetAP2 enzyme (Homo sapiens, UniProt P50579) Read-out: IC50 Value: ?
### Response 15.8 nM

### Prompt What reported IC50 corresponds to O=C1Cc2cccc(-c3cc(C(F)(F)F)cc4[nH]ncc34)c2N1 [Example 136] on human MetAP2 enzyme (Homo sapiens, UniProt P50579)?
### Response 12.6 nM

### Prompt Find the measured IC50: item O=C(c1ccc(-c2cc(C(F)(F)F)cc3[nH]ncc23)cn1)N1CCOCC1 [Example 262] , target or system human MetAP2 enzyme (Homo sapiens, UniProt P50579).
### Response 10 nM

### Prompt Provide the documented IC50 with human MetAP2 enzyme (Homo sapiens, UniProt P50579) as the system for COc1ccc(C(=O)N2CCN(C)CC2)cc1-c1cc(C(F)(F)F)cc2[nH]ncc12 [Example 266]
### Response 12.6 nM

### Prompt I'm curious: which IC50 was measured for O=C(c1c[nH]c(=O)c(-c2cc(C(F)(F)F)cc3[nH]ncc23)c1)N1CCOCC1 [Example 298] tested on human MetAP2 enzyme (Homo sapiens, UniProt P50579)?
### Response 10 nM

### Prompt # returns recorded IC50 (system: human MetAP2 enzyme (Homo sapiens, UniProt P50579)) for CN(C)S(=O)(=O)c1cccc(-c2cc(C(F)(F)F)cc3[nH]ncc23)c1 [Example 108]
### Response 12.6 nM

### Prompt Which IC50 is reported with human MetAP2 enzyme (Homo sapiens, UniProt P50579) for this entry: CN1CCN(C(=O)c2cncc(-c3cc(C(F)(F)F)cc4[nH]ncc34)c2)CC1 [Example 287] ?
### Response 3.98 nM

### Prompt Entry N#Cc1ccc(CO)c(-c2cc(C(F)(F)F)cc3[nH]ncc23)c1 [Example 140] , system human MetAP2 enzyme (Homo sapiens, UniProt P50579): what IC50 was measured?
### Response 3.98 nM

### Prompt Find IC50 (human MetAP2 enzyme (Homo sapiens, UniProt P50579)) for the entry CN1CCOc2cc(-c3cc(C(F)(F)F)cc4[nH]ncc34)cnc21 [Example 122]
### Response 12.6 nM

### Prompt Entry COc1ccc(CC(=O)N2CCOCC2)cc1-c1cc(C(F)(F)F)cc2[nH]ncc12 [Example 316] , system human MetAP2 enzyme (Homo sapiens, UniProt P50579): what IC50 was measured?
### Response 10 nM
